- test.details: MRP1 drug-resistance reversers in H69AR cells – cell-based, doxorubicin co-treatment, pilot screen (AID 601)
- experimental.conditions: H69AR cells + 2 uM doxorubicin, CellTiter-Glo, 72 h; measured here: viability with 2 uM doxorubicin; at 10 µM; stronger effect = lower value
endpoint.label: viability (%)
# number only, unit % dropped from output

For COC(=O)C(C)Sc1nnc2n(-c3cccc(C)c3)c(=O)c3c4c(sc3n12)CCCC4 (stereo unspecified) the compound record lists viability as 18.4

Briefly, viability measured for CCOC(=O)N1CCN(c2cc(=O)n(-c3cccc(Br)c3)c(=O)[nH]2)CC1 : 85.5

get_value(item= Cc1noc(/C=C/N(C)C)c1S(=O)(=O)N1CCCC(C(=O)NC2CCCCC2)C1 (stereo unspecified) , readout=viability) returns 105

Record CCCN1CC23C=CC(O2)C(C(=O)O)C3C1=O (stereo unspecified) , field viability: 99.7

response.value for CC(C(=O)N1CC2(C)CC1CC(C)(C)C2)N1C(=O)c2ccccc2C1=O (stereo unspecified) (field: viability) = 81.3

Lab book: viability of COc1ccc(CN2C(=O)CN=C2Nc2ccc(C)cc2C)cc1 noted as 77.8

Measured viability, COc1ccc(S(=O)(=O)N2CCN(c3ccc(C)cc3C)CC2)cc1OC : 98.2

Please fill in: viability reported for COc1cc(NC(=O)C2C3C=CC(C3)C2C(=O)O)c(OC)cc1Cl (stereo unspecified) = 93.9

Quick note, viability for c1ccc(-c2nnc(SCc3nc4ccccc4[nH]3)o2)cc1 landed at 85.8

# compound Cc1cc(N)n2nc(-c3ccccc3)cc2n1 ; its viability = 68.5

viability in this record for Cc1ccc(C)n1-c1ccc(-n2cnnn2)cc1 : 76.6

Notebook: COc1ccccc1S(=O)(=O)Cc1ccc(C(=O)N2CCOCC2)o1 , viability read as 92.7

# compound CCOC(=O)c1cc(NC(=O)SCC(=O)O)c(C)nc1C ; its viability = 85.4

Looking up Cc1ccc(C)c(S(=O)(=O)n2cnc3ccccc32)c1 , I found its viability recorded as 91.1

Sure, the documented viability for O=C(c1cc(C2CC2)on1)N1CCN(C(c2ccccc2)c2ccccc2)CC1 is 94.6

response.value for Cc1c(C)n(C)c2ccc(C(=O)NCc3cccs3)cc12 (field: viability) = 74.6

// viability lookup, compound = O=C(c1ccco1)c1nnn(Cc2ccccc2)c1-c1ccccc1 , result: 81.7

Looking up CC(C)(C)SCCNC(=O)COc1ccccc1 , I found its viability recorded as 85

Measured viability, Cc1cn2c(-c3ccc(Cl)cc3)nnc2s1 : 99.1

Record Cc1c(C)c2ccc(OC3CCCCC3=O)cc2oc1=O (stereo unspecified) . Reported viability: 75.4

Query CCN(CC)CCCNC(=O)c1cn(C)c2ccc(S(=O)(=O)N(C)C)cc2c1=O yields viability of 96.7

// field: viability; key: O=C(Nc1ccccc1)C1=C(O)CC(c2ccoc2)CC1=Nc1ccccc1 (stereo unspecified) ; value = 79.7

The recorded viability for entry CCN1CCN(c2nc3c(c(=O)[nH]c(=O)n3C)n2CCSc2nc3ccccc3s2)CC1 equals 97.1

// sample CC1Cn2c(nnc2-c2ccc(F)cc2)S1 (stereo unspecified) , its viability was 95.2

Cc1nc2ccccc2c2oc(C(=O)NCCN3CCCCC3C)cc12 (stereo unspecified) yielded viability of 99.2

Consider O=C(Nc1nnc(-c2ccc(Cl)cc2)o1)C1CCCCC1 . Its measured viability is 86.5

Record O=C1CCCc2c1cc(C(=O)NCCCN1CCOCC1)c(=O)n2-c1ccc(Cl)cc1 . Reported viability: 82.5

Entry under test: Cn1ccnc1SCC(=O)Nc1ccc2ccccc2c1 . Its viability was 86.9

viability reported for this compound Cc1ccccc1NC(=O)C1CCCN(S(=O)(=O)c2cnc[nH]2)C1 (stereo unspecified) : 91.2

Memo: CCCCN=CC1=C(O)C(C(=O)OC)C(C)(C)CC1=O (stereo unspecified) , reported viability: 86.9

Memo: O=C(NC1(C(=O)NC2CCCCC2)CCCCC1)c1ccc2c(c1)OCO2 , reported viability: 99.2

Quick note, viability for COc1ccc(-c2nc(CCNC(=O)c3ccco3)cs2)cc1OC landed at 77.4

Value of measured viability for the entry CCN1CCN(Cc2ccc(NC(=O)Nc3ccccc3)cc2)CC1 : 89.3

Lab note: measured viability of Cc1ccc(S(=O)(=O)N2CCC(C(=O)N3CCN(Cc4ccccc4)CC3)CC2)cc1 was 101

The compound Cn1nnc2cc(C(=O)N3CCCCCC3)ccc21 showed viability equal to 94.3

Form field viability, entry COc1ccc(C2C(C(C)=O)=C(C)N=c3s/c(=C/c4ccc5c(c4)OCO5)c(=O)n32)cc1 (stereo unspecified) : 94.4

The compound identified as O=C(Cn1nc(Cc2ccncc2)c2ccccc2c1=O)N1CCc2ccccc2C1 registered its viability at 91.1

CCn1c(SCC(=O)Nc2cc(C)ccc2C)nc2c(c1=O)SC(C)C2 (stereo unspecified) has a reported viability of 67.8

CCOc1ccccc1C(=O)Nc1nnc(CC)s1 yielded viability of 88.7

Just so you know, measured viability for CCOc1cccc(C(=O)N2CCCCC2c2cccnc2)c1 (stereo unspecified) came out at 99.6

// recorded viability for CC1CCc2nn(CC(=O)NCc3ccc4c(c3)OCO4)cc2C1 (stereo unspecified) : 90.6

Record C=CCn1c(SC(C)C(=O)NC2(C#N)CCCCC2)nnc1-c1ccc(OC)cc1 (stereo unspecified) , field viability: 78.3

Lookup result for CCc1nn(CC(=O)NCCCN2CCc3ccccc3C2)c(=O)c2cc3sccc3n12 ; measured viability: 80.8

// viability value for CC(C)c1nccn1S(=O)(=O)c1cc(Cl)ccc1Cl : 86.3

Memo: CCc1cc(=O)n2[nH]c(C)c(-c3ccccc3OC)c2n1 , reported viability: 95

The reported value for O=C(O)C1CC=CCC1C(=O)Nc1cccc(F)c1 (stereo unspecified) in terms of viability is 88.3
